- System: Cell membrane
- experimental_protocol: Disruption of membrane integrity in Salmonella typhimurium DT104 assessed as increase in fluorescence intensity at 0.5 to 2 times of MIC incubated for 15 mins by PI staining based flow cytometric analysis
- Format: subcellular
- test_settings: Salmonella enterica subsp. enterica serovar Typhimurium
Active and inactive are the calls of the source. The calls are words filed in the database; no cut-off is given here. Peptide text beside a SMILES is read from it.
endpoint_name: Activity

Some entries whose results are on file:
compound	Activity
CC(C)[C@H](N)C(=O)N[C@@H](CCCCN)C(=O)N[C@H](C(=O)N[C@@H](CCCCN)C(=O)N[C@H](C(=O)N[C@@H](CCCCN)C(=O)N[C@@H](CS)C(=O)N[C@H](C(=O)N[C@@H](CCCCN)C(=O)N[C@@H](CO)C(=O)NCC(=O)N[C@@H](CS)C(=O)N[C@@H](CCCCN)C(=O)N[C@H](C(=O)N[C@@H](CCCCN)C(=O)N[C@H](C(=O)N[C@@H](CCCCN)C(=O)N[C@H](C(N)=O)C(C)C)C(C)C)C(C)C)[C@@H](C)O)C(C)C)C(C)C (H-VKVKVKCTKSGCKVKVKV-NH2)	Active
CC(C)C[C@H](NC(=O)[C@H](CCCCN)NC(=O)[C@H](CC(C)C)NC(=O)[C@H](CCCCN)NC(=O)[C@H](CS)NC(=O)CNC(=O)[C@H](CO)NC(=O)[C@H](CCCCN)NC(=O)[C@@H](NC(=O)[C@H](CS)NC(=O)[C@H](CCCCN)NC(=O)[C@H](CC(C)C)NC(=O)[C@H](CCCCN)NC(=O)[C@@H](N)CC(C)C)[C@@H](C)O)C(N)=O (H-LKLKCTKSGCKLKL-NH2)	Active
CC(C)C[C@H](NC(=O)[C@H](CCCCN)NC(=O)[C@H](CC(C)C)NC(=O)[C@H](CCCCN)NC(=O)[C@H](CC(C)C)NC(=O)[C@H](CCCCN)NC(=O)[C@H](CS)NC(=O)CNC(=O)[C@H](CO)NC(=O)[C@H](CCCCN)NC(=O)[C@@H](NC(=O)[C@H](CS)NC(=O)[C@H](CCCCN)NC(=O)[C@H](CC(C)C)NC(=O)[C@H](CCCCN)NC(=O)[C@H](CC(C)C)NC(=O)[C@H](CCCCN)NC(=O)[C@@H](N)CC(C)C)[C@@H](C)O)C(N)=O (H-LKLKLKCTKSGCKLKLKL-NH2)	Active
C[C@@H](O)[C@H](NC(=O)[C@H](CS)NC(=O)[C@H](CCCCN)NC(=O)[C@H](Cc1c[nH]c2ccccc12)NC(=O)[C@H](CCCCN)NC(=O)[C@@H](N)Cc1c[nH]c2ccccc12)C(=O)N[C@@H](CCCCN)C(=O)N[C@@H](CO)C(=O)NCC(=O)N[C@@H](CS)C(=O)N[C@@H](CCCCN)C(=O)N[C@@H](Cc1c[nH]c2ccccc12)C(=O)N[C@@H](CCCCN)C(=O)N[C@@H](Cc1c[nH]c2ccccc12)C(N)=O (H-WKWKCTKSGCKWKW-NH2)	Active

# input for lookup
Log: Cell membrane, compound CC(C)[C@H](N)C(=O)N[C@@H](CCCCN)C(=O)N[C@H](C(=O)N[C@@H](CCCCN)C(=O)N[C@@H](CS)C(=O)N[C@H](C(=O)N[C@@H](CCCCN)C(=O)N[C@@H](CO)C(=O)NCC(=O)N[C@@H](CS)C(=O)N[C@@H](CCCCN)C(=O)N[C@H](C(=O)N[C@@H](CCCCN)C(=O)N[C@H](C(N)=O)C(C)C)C(C)C)[C@@H](C)O)C(C)C (H-VKVKCTKSGCKVKV-NH2) , Activity = Active
